Recorded values, source patent US9834571B2.

Measured IC50, listed per entry.
# system_under_test: UniProt:P00533
# assay_info: Kinase inhibitory activity against human EGFR (native sequence)
# Assay type: biochemical
# assay_conditions: human EGFR native sequence; 10 μM ATP; read-out: IC50 for kinase inhibition, EGFR

{"compound": "C=CC(=O)Nc1cc(Nc2ncc(Cl)c(Nc3ccccc3P(C)(C)=O)n2)c(OC)cc1N1CCCN(C)CC1 [Example 25]", "system_under_test": "UniProt:P00533", "IC50": "< 50 nM"}
{"compound": "COc1ccc(NC(=O)/C=C/C2(N)CC2)cc1Nc1ncc(Cl)c(Nc2ccccc2P(C)(C)=O)n1 [Example 94]", "system_under_test": "UniProt:P00533", "IC50": "101 to 250 nM"}
{"compound": "C=C(CN1CCN(C)CC1)C(=O)Nc1ccc(OC)c(Nc2ncc(Cl)c(Nc3ccccc3P(C)(C)=O)n2)c1 [Example 49]", "system_under_test": "UniProt:P00533", "IC50": "< 50 nM"}
{"compound": "COc1cc(F)c(NC(=O)C#CCCN2CCCCC2)cc1Nc1ncc(Cl)c(Nc2ccccc2P(C)(C)=O)n1 [Example 88]", "system_under_test": "UniProt:P00533", "IC50": "< 50 nM"}
{"compound": "CC#CC(=O)Nc1cc(Nc2ncc(Cl)c(Nc3ccccc3P(C)(C)=O)n2)c(OC)cc1OCCN1CCCC1 [Example 80]", "system_under_test": "UniProt:P00533", "IC50": "≥ 250 nM"}
{"compound": "C=CC(=O)Nc1cc(Nc2ncc(Cl)c(Nc3ccccc3P(C)(C)=O)n2)c(OC)cc1OCc1cccnc1 [Example 10]", "system_under_test": "UniProt:P00533", "IC50": "50 to 100 nM"}
{"compound": "C=C(CN1CCN(C(C)C)CC1)C(=O)Nc1ccc(OC)c(Nc2ncc(Cl)c(Nc3ccccc3P(C)(C)=O)n2)c1 [Example 50]", "system_under_test": "UniProt:P00533", "IC50": "50 to 100 nM"}

====

# system_under_test: BaF3 cells expressing the target EGFR mutations (Homo sapiens, UniProt P00533, T790M/L858R, cells depend on it)
# Construct: IC50, BAF3 EGFR L858R-T790M PURO POOL; other: BAF3 EGFR L858R-T790M PURO POOL cells, MTT; IC50, BAF3 EGFR L858R-T790M PURO POOL; other: BAF3 EGFR L858R-T790M PURO POOL cells; MTT
# Sequence (P00533 whole entry T790M/L858R): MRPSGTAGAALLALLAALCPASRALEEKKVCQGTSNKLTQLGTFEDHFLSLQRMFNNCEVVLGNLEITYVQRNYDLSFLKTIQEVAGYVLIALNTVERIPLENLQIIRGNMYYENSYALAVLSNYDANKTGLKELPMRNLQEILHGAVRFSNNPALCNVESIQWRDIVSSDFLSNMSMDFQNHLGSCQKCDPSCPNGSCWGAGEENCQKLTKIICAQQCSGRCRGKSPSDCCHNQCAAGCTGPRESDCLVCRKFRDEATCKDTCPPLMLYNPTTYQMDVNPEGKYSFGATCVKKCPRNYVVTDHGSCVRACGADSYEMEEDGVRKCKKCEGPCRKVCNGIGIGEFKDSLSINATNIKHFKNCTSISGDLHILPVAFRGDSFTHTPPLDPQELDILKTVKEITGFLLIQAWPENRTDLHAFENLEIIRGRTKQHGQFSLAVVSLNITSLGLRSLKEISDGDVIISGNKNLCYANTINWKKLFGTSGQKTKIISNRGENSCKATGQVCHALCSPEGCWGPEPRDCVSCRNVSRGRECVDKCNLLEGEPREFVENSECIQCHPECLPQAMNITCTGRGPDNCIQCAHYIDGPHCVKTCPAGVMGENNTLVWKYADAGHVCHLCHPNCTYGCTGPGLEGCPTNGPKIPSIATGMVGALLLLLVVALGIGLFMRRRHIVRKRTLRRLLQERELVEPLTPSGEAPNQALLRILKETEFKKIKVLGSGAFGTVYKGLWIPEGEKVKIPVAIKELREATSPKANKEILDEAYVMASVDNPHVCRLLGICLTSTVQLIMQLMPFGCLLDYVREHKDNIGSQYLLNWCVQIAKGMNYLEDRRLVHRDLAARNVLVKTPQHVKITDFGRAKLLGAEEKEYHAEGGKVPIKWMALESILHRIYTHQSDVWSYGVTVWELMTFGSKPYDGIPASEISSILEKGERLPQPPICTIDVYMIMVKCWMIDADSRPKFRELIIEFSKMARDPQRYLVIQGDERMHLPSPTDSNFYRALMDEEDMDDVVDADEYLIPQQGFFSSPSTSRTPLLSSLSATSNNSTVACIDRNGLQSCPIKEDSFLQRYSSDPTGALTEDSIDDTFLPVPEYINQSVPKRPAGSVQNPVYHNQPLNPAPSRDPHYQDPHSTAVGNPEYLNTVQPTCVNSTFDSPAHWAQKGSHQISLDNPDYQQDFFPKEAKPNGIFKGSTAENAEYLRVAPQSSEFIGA
# assay_info: Antiproliferative activity (MTT) against BaF3 cells expressing the target EGFR mutations
# Type: cell-based
# assay_conditions: BAF3 EGFR L858R-T790M PURO POOL cells, read-out: IC50, BAF3 EGFR L858R-T790M PURO POOL
measured_attribute: GI50

{"compound": "COc1ccc(NC(=O)CCl)cc1Nc1ncc(C)c(Nc2ccccc2P(C)(C)=O)n1 [Example 141]", "test_result": "< 50 nM"}
{"compound": "C=CC(=O)Nc1cc(Nc2ncc(Cl)c(Nc3ccccc3P(C)(C)=O)n2)c(OC)cc1OC1COC1 [Example 9]", "test_result": "50 to 100 nM"}
{"compound": "CC#CC(=O)Nc1cc(Nc2ncc(Cl)c(Nc3ccccc3P(C)(C)=O)n2)c(OC)cc1OCC1CCOCC1 [Example 102]", "test_result": "50 to 100 nM"}
{"compound": "C=CC(=O)Nc1cc(Nc2ncc(Cl)c(Nc3ccccc3P(C)(C)=O)n2)c(OC)cc1C#CCN(C)C [Example 124]", "test_result": "< 50 nM"}
{"compound": "C=CC(=O)Nc1ccc(OC)c(Nc2ncc(Cl)c(Nc3ccc(OC4CCOC4)cc3P(C)(C)=O)n2)c1 (stereo not drawn) [Example 99]", "test_result": "50 to 100 nM"}
{"compound": "CC#CC(=O)Nc1cc(Nc2ncc(Cl)c(Nc3ccccc3P(C)(C)=O)n2)c(OC)cc1N1CCC(N(C)C)C1 (stereo not drawn) [Example 112]", "test_result": "50 to 100 nM"}
{"compound": "COc1ccc(NC(=O)/C=C/C(=O)N(C)C)cc1Nc1ncc(Cl)c(Nc2ccccc2P(C)(C)=O)n1 [Example 60]", "test_result": "≥ 250 nM"}
{"compound": "C=CC(=O)Nc1cc(Nc2ncc(Cl)c(Nc3ccccc3P(C)(C)=O)n2)c(OC)cc1OC1CN(C)C1 [Example 17]", "test_result": "101 to 250 nM"}
{"compound": "C=CC(=O)Nc1cc(Nc2ncc(Cl)c(Nc3ccccc3P(C)(C)=O)n2)c(OC)cc1C#CCN1CCCC1 [Example 157]", "test_result": "< 50 nM"}
{"compound": "C=C(CN1CCNC(=O)C1)C(=O)Nc1ccc(OC)c(Nc2ncc(Cl)c(Nc3ccccc3P(C)(C)=O)n2)c1 [Example 47]", "test_result": "≥ 250 nM"}
{"compound": "COc1cc(N2CCOCC2)c(NC(=O)C#CCN(C)C)cc1Nc1ncc(Cl)c(Nc2ccccc2P(C)(C)=O)n1 [Example 104]", "test_result": "< 50 nM"}
{"compound": "C=CC(=O)Nc1ccc(CC)c(Nc2ncc(Cl)c(Nc3ccccc3P(C)(C)=O)n2)c1 [Example 135]", "test_result": "< 50 nM"}
{"compound": "C=CC(=O)Nc1ccc(Nc2ncc(Cl)c(Nc3cccc(OCCN4CCCCC4)c3P(C)(C)=O)n2)c(OC)c1 [Example 107]", "test_result": "101 to 250 nM"}
{"compound": "COc1cc(N2CCCC2)c(NC(=O)C#CCCN2CCN(C)CC2)cc1Nc1ncc(Cl)c(Nc2ccccc2P(C)(C)=O)n1 [Example 119]", "test_result": "101 to 250 nM"}
{"compound": "C=C(CN1CCN(S(C)(=O)=O)CC1)C(=O)Nc1ccc(OC)c(Nc2ncc(Cl)c(Nc3ccccc3P(C)(C)=O)n2)c1 [Example 44]", "test_result": "< 50 nM"}
